# System: UniProt P07237
# Sequence (P07237 18-137): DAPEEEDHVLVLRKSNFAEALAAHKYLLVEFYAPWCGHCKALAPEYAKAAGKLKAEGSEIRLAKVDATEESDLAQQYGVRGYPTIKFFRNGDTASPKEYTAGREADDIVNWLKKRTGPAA
Measure Name: Kd (µM)

[[record]]
input_smiles = "O=C1C=C2C=C[C@@H]3C[C@@]2(O1)[C@H]1CCCCN31"
system = "UniProt P07237"
measure_name = "Kd"
reading = 758

